# Kd per record follows
- systemUnderTest: type I collagen gelatin (skin gelatin)
- Sequence (P02453 162-1217, chain 1 of 2): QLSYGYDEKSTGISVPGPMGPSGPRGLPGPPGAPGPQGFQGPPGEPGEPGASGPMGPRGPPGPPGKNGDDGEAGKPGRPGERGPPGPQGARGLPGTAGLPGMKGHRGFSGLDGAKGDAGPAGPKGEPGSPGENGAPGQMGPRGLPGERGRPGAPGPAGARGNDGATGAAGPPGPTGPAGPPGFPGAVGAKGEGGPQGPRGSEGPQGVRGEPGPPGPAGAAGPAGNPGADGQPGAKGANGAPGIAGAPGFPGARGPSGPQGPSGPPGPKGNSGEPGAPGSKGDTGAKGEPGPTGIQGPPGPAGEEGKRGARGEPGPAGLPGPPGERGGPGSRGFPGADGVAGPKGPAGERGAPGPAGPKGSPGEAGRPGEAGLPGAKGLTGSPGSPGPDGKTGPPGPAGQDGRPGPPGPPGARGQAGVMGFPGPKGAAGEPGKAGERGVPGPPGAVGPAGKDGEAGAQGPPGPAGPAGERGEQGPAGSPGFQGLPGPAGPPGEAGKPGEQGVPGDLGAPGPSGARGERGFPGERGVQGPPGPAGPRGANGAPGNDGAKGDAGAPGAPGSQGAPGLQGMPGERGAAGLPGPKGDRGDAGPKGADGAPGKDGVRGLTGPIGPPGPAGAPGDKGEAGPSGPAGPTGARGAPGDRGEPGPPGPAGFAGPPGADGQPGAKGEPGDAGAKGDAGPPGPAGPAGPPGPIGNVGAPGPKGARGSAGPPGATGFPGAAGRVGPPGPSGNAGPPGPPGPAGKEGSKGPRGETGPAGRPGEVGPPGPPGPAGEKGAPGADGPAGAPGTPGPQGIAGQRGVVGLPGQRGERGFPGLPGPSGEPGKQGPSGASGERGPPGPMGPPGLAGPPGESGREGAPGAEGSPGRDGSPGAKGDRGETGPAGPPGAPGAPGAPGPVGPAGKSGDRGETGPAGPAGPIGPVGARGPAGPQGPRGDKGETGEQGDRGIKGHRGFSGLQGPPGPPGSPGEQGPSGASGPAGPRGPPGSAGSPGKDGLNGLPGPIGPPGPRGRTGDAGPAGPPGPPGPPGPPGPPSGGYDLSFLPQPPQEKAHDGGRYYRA
- Sequence (P02465 80-1117, chain 2 of 2, further chain): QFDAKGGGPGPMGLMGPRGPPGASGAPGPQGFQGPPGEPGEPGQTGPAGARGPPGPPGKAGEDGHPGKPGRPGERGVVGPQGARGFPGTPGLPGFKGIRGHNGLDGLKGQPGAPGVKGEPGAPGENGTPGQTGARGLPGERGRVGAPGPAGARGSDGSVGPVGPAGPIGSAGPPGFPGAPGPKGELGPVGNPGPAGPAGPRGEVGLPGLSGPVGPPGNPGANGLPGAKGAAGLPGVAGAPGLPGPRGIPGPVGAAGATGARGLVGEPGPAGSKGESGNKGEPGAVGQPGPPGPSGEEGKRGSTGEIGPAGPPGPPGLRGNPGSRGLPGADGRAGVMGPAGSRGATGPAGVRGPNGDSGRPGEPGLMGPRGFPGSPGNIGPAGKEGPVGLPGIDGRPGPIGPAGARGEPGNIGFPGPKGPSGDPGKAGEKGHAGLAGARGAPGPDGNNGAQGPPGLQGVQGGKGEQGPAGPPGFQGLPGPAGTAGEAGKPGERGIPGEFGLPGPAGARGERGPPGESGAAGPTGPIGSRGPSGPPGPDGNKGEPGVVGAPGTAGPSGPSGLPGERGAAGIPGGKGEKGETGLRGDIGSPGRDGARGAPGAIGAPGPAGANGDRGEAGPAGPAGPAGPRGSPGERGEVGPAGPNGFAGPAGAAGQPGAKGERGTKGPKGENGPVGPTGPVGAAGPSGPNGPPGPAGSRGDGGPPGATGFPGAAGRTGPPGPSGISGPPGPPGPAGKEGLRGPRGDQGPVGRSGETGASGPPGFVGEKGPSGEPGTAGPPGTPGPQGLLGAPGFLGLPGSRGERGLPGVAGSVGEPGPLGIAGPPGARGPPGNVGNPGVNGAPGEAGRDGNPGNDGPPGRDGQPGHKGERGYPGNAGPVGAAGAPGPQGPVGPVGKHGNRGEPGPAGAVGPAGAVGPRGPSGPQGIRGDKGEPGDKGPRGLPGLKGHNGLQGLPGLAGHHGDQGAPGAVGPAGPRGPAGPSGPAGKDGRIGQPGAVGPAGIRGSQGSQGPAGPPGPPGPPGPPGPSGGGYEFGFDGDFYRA
- assayProcedure: ELISA-type plate binding assay, biotinylated protein on gelatin-coated plate
Write it as a number; the unit nM goes unstated.

| binder | endpointUnit | recordedMeasurement |
| --- | --- | --- |
| peptide 222 comprising three modules corresponding to module 2 of the CBD of MMP-2 (designed binder, Expressed in Shuffle cells with a His6-SUMO tag that was cleaved off) EGQVVFTMYGNAEGQPCKFPFRFQGTSYDSCTTEGRTDGYRWCGTTEDYDRDKKYGFCPHEALFTMGGNAEGQPCKFPFRFQGTSYDSCTTEGRTDGYRWCGTTEDYDRDKKYGFCPETALFTMGGNAEGQPCKFPFRFQGTSYDSCTTEGRTDGYRWCGTTEDYDRDKKYGFCPDQGYSL | nM | 0.497 |

Continue with the binder presented below.
Notebook: collagen binding domain (CBD) of gelatinase A (MMP-2) (other, Expressed in Shuffle T7 E. coli with a His6-SUMO tag that was cleaved off; also called CBD of MMP-2; Full length CBD) ADGEYCKFPFLFNGKEYNSCTDTGRSDGFLWCSTTYNFEKDGKYGFCPHEALFTMGGNAEGQPCKFPFRFQGTSYDSCTTEGRTDGYRWCGTTEDYDRDKKYGFCPETAMSTVGGNSEGAPCVFPFTFLGNKYESCTSAGRSDGKMWCATTANYDDDRKWGFCPD , Kd read as 2.58
